# target_or_system: Bem1-1, P29366
# Sequence (P29366 55-141): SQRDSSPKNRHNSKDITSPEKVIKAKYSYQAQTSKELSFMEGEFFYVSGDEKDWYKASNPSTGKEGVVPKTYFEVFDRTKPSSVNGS
# assay_remarks: SPOT array
# experimental_context: median of control spots 4282
endpoint_label: SPOT intensity
Could you respond with only the numeric value?

Recorded SPOT intensity, per entry:
# binder, endpoint_label, endpoint_result
rows = [
    ("QRIRKIPGIPLMSVG", "SPOT intensity", 0),
    ("LSKRLPLRFPEHTSS", "SPOT intensity", 0),
    ("NHSRSLFSLPGNQQS", "SPOT intensity", 3),
]

Which SPOT intensity is reported for this binder? IKTRSVPKIPSIESV
3

Which SPOT intensity is reported for this binder? PSRRDSLSIPRAVDA
0

Which SPOT intensity is reported for this binder? RAPPPVPKKPSSRIA
0
